Entries with reported pKi on 5-hydroxytryptamine receptor 7 (Homo sapiens)
Sequence (P34969 whole entry): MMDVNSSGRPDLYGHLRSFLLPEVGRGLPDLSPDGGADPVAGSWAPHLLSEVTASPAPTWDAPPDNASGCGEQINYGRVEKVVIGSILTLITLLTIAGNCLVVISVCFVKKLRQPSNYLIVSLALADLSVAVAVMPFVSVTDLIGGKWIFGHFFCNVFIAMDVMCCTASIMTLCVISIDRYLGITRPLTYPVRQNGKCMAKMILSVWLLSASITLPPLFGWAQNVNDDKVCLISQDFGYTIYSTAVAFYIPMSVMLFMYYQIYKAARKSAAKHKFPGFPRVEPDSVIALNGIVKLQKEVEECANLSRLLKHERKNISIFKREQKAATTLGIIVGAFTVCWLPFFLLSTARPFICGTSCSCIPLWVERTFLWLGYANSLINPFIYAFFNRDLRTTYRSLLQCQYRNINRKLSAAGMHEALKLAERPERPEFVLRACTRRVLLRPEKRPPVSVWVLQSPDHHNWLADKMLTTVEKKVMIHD
pKi: −log10 of the molar value.
measure: pKi

Would you please look over these solved cases?
COc1ccc(/C=C2\NC(=O)N(CCCN3CCN(c4ncccn4)CC3)C2=O)cc1OC :: 7.13
COc1ccc(/C=C2\NC(=O)N(CCCCN3CCN(c4ccccc4OC)CC3)C2=O)cc1OC :: 7.80
COc1ccc(/C=C2\NC(=O)N(CCCN3CCN(c4cccc(Cl)c4Cl)CC3)C2=O)cc1OC1CCCC1 :: 6.42

(P) COc1ccc(/C=C2\NC(=O)N(CCCN3CCN(c4ccccc4OC)CC3)C2=O)cc1OC1CCCC1
(Q) COc1ccc(/C=C2\NC(=O)N(CCCCN3CCN(c4ncccn4)CC3)C2=O)cc1OC
(R) COc1ccc(/C=C2\NC(=O)N(CCCCN3CCN(c4cccc(Cl)c4Cl)CC3)C2=O)cc1OC1CCCC1
(S) COc1ccc(/C=C2\NC(=O)N(CCCN3CCN(c4ccccc4OC)CC3)C2=O)cc1OC
Hey, can you sort those compounds up there by pKi, smallest first? I would appreciate it if you listed the labels in the requested order.
Q, R, S, P

src = ChEMBL document CHEMBL4342411
